experiment: Intrinsic clearance in rat liver microsomes; assay type: in vitro ADME
Outcome: Condition met for CLint scaled of at least 3000 mL/min/kg; Condition not met for anything lower.

Fc1ccc2c(CN3CCO[C@H](COc4ccccc4)C3)c[nH]c2c1 [Compound 4ee]; Condition not met
COc1ccc(CN2CCO[C@H](COc3ccccc3)C2)cc1F [Compound 4l]; Condition not met
Clc1ccc(CN2CCO[C@H](COc3ccccc3)C2)cc1Cl [Compound 4i]; Condition not met
Clc1ccc2c(CN3CCO[C@H](COc4ccccc4)C3)c[nH]c2c1 [Compound 4aa]; Condition not met
Clc1ccc(CN2CCO[C@H](CSc3ccccc3)C2)cc1 [Compound 5aa]; Condition met
Clc1ccc(CN2CCO[C@H](COc3ccccc3)C2)cc1 [Compound 4a]; Condition met
COc1cc(CN2CCO[C@H](COc3cccc(F)c3)C2)ccc1Cl [Compound 5n]; Condition not met
COc1cc(CN2CCO[C@H](COc3ccccc3)C2)ccc1Cl [Compound 4p]; Condition not met
Cn1ncc2cc(CN3CCO[C@H](COc4ccccc4)C3)ccc21 [Compound 4y]; Condition not met
Cc1ccc(CN2CCO[C@H](CSc3ccccc3)C2)cc1C [Compound 5bb]; Condition met
COc1ccc(CN2CCO[C@H](COc3cccc(F)c3)C2)cc1Cl [Compound 5m]; Condition not met
COc1ccc(CN2CCO[C@H](COc3ccccc3)C2)cc1Cl [Compound 4n]; Condition not met
Fc1ccc2c(CN3CCO[C@H](COc4cccc(Cl)n4)C3)c[nH]c2c1 [Compound 5y]; Condition met
c1ccc(OC[C@@H]2CN(Cc3ccc4[nH]ccc4c3)CCO2)cc1 [Compound 4z]; Condition met
Fc1cc(CN2CCO[C@H](COc3ccccc3)C2)ccc1Cl [Compound 4g]; Condition not met
Clc1ccc(CN2CCO[C@H](COc3cccc(Cl)n3)C2)cc1 [Compound 5z]; Condition met
Fc1ccc2c(CN3CCO[C@H](COc4cccc(F)n4)C3)c[nH]c2c1 [Compound 5u]; Condition met
COc1ccc2c(CN3CCO[C@H](COc4ccccc4)C3)c[nH]c2c1 [Compound 4dd]; Condition not met
c1ccc(OC[C@@H]2CN(Cc3cn4ccccc4n3)CCO2)cc1 [Compound 4t]; Condition not met
Fc1cc(CN2CCO[C@H](COc3ccccc3)C2)ccc1C(F)(F)F [Compound 4j]; Condition not met
